tested on: LXRa:RXRa (NR concentration 270 nM, RXRa partner concentration 90 nM); assay: PBM binding z-score (relative to random genomic background probes); higher = stronger binding; sequences stand for … in GC…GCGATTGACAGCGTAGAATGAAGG
Label Condition not met if PBM binding z-score falls below 2; label Condition met in every other case.

Given the entry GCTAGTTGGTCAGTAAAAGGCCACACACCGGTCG , answer whether its PBM binding z-score meets or surpasses 2.
Condition not met

====

system: THRa homodimer (NR concentration 90 nM); assay: PBM binding z-score (relative to random genomic background probes); higher = stronger binding; sequences stand for … in GC…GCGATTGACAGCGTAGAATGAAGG
metric: PBM binding z-score
Field format: numeric only.

seq | systemTested | metric | reportedResult
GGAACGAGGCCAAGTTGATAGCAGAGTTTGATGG | THRa homodimer (NR concentration 90 nM) | PBM binding z-score | -0.535

Please report the recorded PBM binding z-score for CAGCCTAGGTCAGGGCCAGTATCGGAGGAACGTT .
0.58

# repeat for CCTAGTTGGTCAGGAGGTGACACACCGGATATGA
0.64

# repeat for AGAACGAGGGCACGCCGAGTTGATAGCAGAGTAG
-0.089

# repeat for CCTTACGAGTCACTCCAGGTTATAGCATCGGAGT
1.07

# repeat for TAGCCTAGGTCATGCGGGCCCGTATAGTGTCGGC
1.33

# repeat for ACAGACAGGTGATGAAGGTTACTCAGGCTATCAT
0.139

# repeat for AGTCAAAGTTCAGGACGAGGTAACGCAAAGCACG
1.73

# repeat for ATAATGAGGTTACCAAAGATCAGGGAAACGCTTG
1.1

# repeat for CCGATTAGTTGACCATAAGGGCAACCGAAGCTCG
0.965

# repeat for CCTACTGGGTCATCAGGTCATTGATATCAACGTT
3.17

# repeat for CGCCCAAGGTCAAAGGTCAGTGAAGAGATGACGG
2.31
